Tested on: vancomycin-middle resistant Staphylococcus aureus Mu50 strain
Assay: In vitro antibacterial activity assay (MIC, CLSI dilution method)
Assay type: cell-based
Conditions: Staphylococcus aureus, 16 h, S. aureus Mu50, 37° C., read-out: MIC Mu50
measured.endpoint: MIC (mg/L)
Reply with just the number (in mg/L).

// below: answered molecules
molecule	measured.endpoint	meas.value
CCCCCCCCCCNC1(C)C[C@H](O[C@@H]2C(O)C(O)[C@@H](CO)O[C@H]2Oc2c3cc4cc2Oc2ccc(cc2Cl)[C@@H](O)[C@@H](NC(=O)[C@@H](CC(C)C)NC)C(=O)N[C@@H](CC(N)=O)C(=O)N[C@H]4C(=O)N[C@@H]2C(=O)N[C@H](C(=O)N[C@H](C(=O)O)c4cc(O)c(CNC5C(O)OC(CO)[C@H](O)[C@@H]5O)c(O)c4-c4cc2ccc4O)[C@H](O)c2ccc(c(Cl)c2)O3)O[C@@H](C)[C@H]1O (some centres unmarked) [Van034]	MIC	0.25
CN[C@H](CC(C)C)C(=O)N[C@H]1C(=O)N[C@@H](CC(N)=O)C(=O)N[C@H]2C(=O)N[C@H]3C(=O)N[C@H](C(=O)N[C@H](C(=O)O)c4cc(O)c(CNCCCNC(=O)[C@H](O)[C@@H](O)[C@H](O)[C@H](O)CO)c(O)c4-c4cc3ccc4O)[C@H](O)c3ccc(c(Cl)c3)Oc3cc2cc(c3OC2O[C@H](CO)C(O)C(O)[C@H]2O[C@@H]2CC(C)[C@@H](O)C(C)(NCc3ccc(OCc4cccc(-c5ccccc5)c4C)c(Cl)c3)C2)Oc2ccc(cc2Cl)[C@H]1O (some centres unmarked) [Van017]	MIC	1
CCCCCCCCCCNCCNC1(C)C[C@H](O[C@@H]2C(O)C(O)[C@@H](CO)O[C@H]2Oc2c3cc4cc2Oc2ccc(cc2Cl)[C@@H](O)[C@@H](NC(=O)[C@@H](CC(C)C)NC)C(=O)N[C@@H](CC(N)=O)C(=O)N[C@H]4C(=O)N[C@@H]2C(=O)N[C@H](C(=O)N[C@H](C(=O)O)c4cc(O)c(CNCCO)c(O)c4-c4cc2ccc4O)[C@H](O)c2ccc(c(Cl)c2)O3)O[C@@H](C)[C@H]1O (some centres unmarked) [Van005]	MIC	4
CCCCCCCCCCC(=O)NC1(C)C[C@H](O[C@H]2C(Oc3c4cc5cc3Oc3ccc(cc3Cl)[C@@H](O)[C@@H](NC(=O)[C@@H](CC(C)C)NC)C(=O)N[C@@H](CC(N)=O)C(=O)N[C@H]5C(=O)N[C@H]3C(=O)N[C@H](C(=O)N[C@H](C(=O)O)c5cc(O)c(CNCCCNC(=O)[C@H](O)[C@@H](O)[C@H](O)[C@H](O)CO)c(O)c5-c5cc3ccc5O)[C@H](O)c3ccc(c(Cl)c3)O4)O[C@H](CO)C(O)C2O)CC(C)[C@H]1O (some centres unmarked) [Van025]	MIC	32

Turning to the following molecule.
Entry under review: CCCCCCCCCCNCCNC1(C)C[C@H](O[C@H]2C(Oc3c4cc5cc3Oc3ccc(cc3Cl)[C@@H](O)[C@@H](NC(=O)[C@@H](CC(C)C)NC)C(=O)N[C@@H](CC(N)=O)C(=O)N[C@H]5C(=O)N[C@H]3C(=O)N[C@H](C(=O)N[C@H](C(=O)O)c5cc(O)c(CNCCO[C@@H]6OC(CO)[C@@H](O)C(O)C6NC(C)=O)c(O)c5-c5cc3ccc5O)[C@H](O)c3ccc(c(Cl)c3)O4)O[C@H](CO)C(O)C2O)OC(C)[C@H]1O (some centres unmarked) [Van003] . Reported MIC? 16

----------
Measured MIC, listed per entry.
System: vancomycin-middle resistant Staphylococcus aureus Mu50 strain
Assay: In vitro antibacterial activity assay (MIC, CLSI dilution method)
Type: cell-based
Conditions: Staphylococcus aureus, 16 h, S. aureus Mu50, 37° C., read-out: MIC Mu50
Give the quantity in µg/mL, number only.

molecule	meas.value
CCCCCCCCCCNC1(C)C[C@H](O[C@H]2C(Oc3c4cc5cc3Oc3ccc(cc3Cl)[C@@H](O)[C@@H](NC(=O)[C@@H](CC(C)C)NC)C(=O)N[C@@H](CC(N)=O)C(=O)N[C@H]5C(=O)N[C@H]3C(=O)N[C@H](C(=O)N[C@H](C(=O)O)c5cc(O)c(CNCCCNC(=O)[C@H](O)[C@@H](O)[C@H](O)[C@H](O)CO)c(O)c5-c5cc3ccc5O)[C@H](O)c3ccc(c(Cl)c3)O4)O[C@H](CO)C(O)C2O)CC(C)[C@H]1O (some centres unmarked) [Van024]	0.5

Then there is this molecule:
Which value of MIC has been reported for CN[C@H](CC(C)C)C(=O)N[C@H]1C(=O)N[C@@H](CC(N)=O)C(=O)N[C@H]2C(=O)N[C@H]3C(=O)N[C@H](C(=O)N[C@H](C(=O)O)c4cc(O)c(CNCCCNC(=O)[C@H](O)[C@@H](O)[C@H](O)[C@H](O)CO)c(O)c4-c4cc3ccc4O)[C@H](O)c3ccc(c(Cl)c3)Oc3cc2cc(c3OC2O[C@H](CO)C(O)C(O)[C@H]2O[C@@H]2CC(C)[C@@H](O)C(C)(NCc3cccc4ccccc34)C2)Oc2ccc(cc2Cl)[C@H]1O (some centres unmarked) [Van027] in the records? 4

----------
Test system: vancomycin-sensitive Staphylococcus aureus Newman strain
Test: In vitro antibacterial activity assay (MIC, CLSI dilution method)
Type: cell-based
Conditions: Staphylococcus aureus; S. aureus Newman, 37° C., 16 h
The following compounds are shown together with reported MIC values.
Answer with a number only, understood to be in µg/mL.

Solved entries (count: 4):
compound	MIC / µg/mL
CN[C@H](CC(C)C)C(=O)N[C@H]1C(=O)N[C@@H](CC(N)=O)C(=O)N[C@H]2C(=O)N[C@H]3C(=O)N[C@H](C(=O)N[C@H](C(=O)O)c4cc(O)c(CNCCCNC(=O)[C@H](O)[C@@H](O)[C@H](O)[C@H](O)CO)c(O)c4-c4cc3ccc4O)[C@H](O)c3ccc(c(Cl)c3)Oc3cc2cc(c3OC2O[C@H](CO)C(O)C(O)[C@H]2O[C@@H]2CC(C)[C@@H](O)C(C)(NCc3ccc(-c4ccc(Cl)cc4)cc3)C2)Oc2ccc(cc2Cl)[C@H]1O (some centres unmarked)	0.25
CN[C@H](CC(C)C)C(=O)N[C@H]1C(=O)N[C@@H](CC(N)=O)C(=O)N[C@H]2C(=O)N[C@@H]3C(=O)N[C@H](C(=O)N[C@H](C(=O)O)c4cc(O)c(CNC5C(O)OC(CO)[C@H](O)[C@@H]5O)c(O)c4-c4cc3ccc4O)[C@H](O)c3ccc(c(Cl)c3)Oc3cc2cc(c3O[C@@H]2O[C@H](CO)C(O)C(O)[C@H]2O[C@H]2CC(C)(NCc3ccc(C#C[Si](C)(C)C)cc3)[C@H](O)[C@H](C)O2)Oc2ccc(cc2Cl)[C@H]1O (some centres unmarked)	0.5
CN[C@H](CC(C)C)C(=O)N[C@H]1C(=O)N[C@@H](CC(N)=O)C(=O)N[C@H]2C(=O)N[C@H]3C(=O)N[C@H](C(=O)N[C@H](C(=O)O)c4cc(O)c(CNCCCNC(=O)[C@H](O)[C@@H](O)[C@H](O)[C@H](O)CO)c(O)c4-c4cc3ccc4O)[C@H](O)c3ccc(c(Cl)c3)Oc3cc2cc(c3OC2O[C@H](CO)C(O)C(O)[C@H]2O[C@@H]2CC(C)[C@@H](O)C(C)(NCc3ccc(C#C[Si](C)(C)C)cc3)C2)Oc2ccc(cc2Cl)[C@H]1O (some centres unmarked)	1
CN[C@H](CC(C)C)C(=O)N[C@H]1C(=O)N[C@@H](CC(N)=O)C(=O)N[C@H]2C(=O)N[C@H]3C(=O)N[C@H](C(=O)N[C@H](C(=O)O)c4cc(O)cc(O)c4-c4cc3ccc4O)[C@H](O)c3ccc(c(Cl)c3)Oc3cc2cc(c3O[C@@H]2O[C@H](CO)[C@@H](O)[C@H](O)[C@H]2O[C@H]2C[C@](C)(N)[C@H](O)[C@H](C)O2)Oc2ccc(cc2Cl)[C@H]1O	2

Look up MIC for this compound: CN[C@H](CC(C)C)C(=O)N[C@H]1C(=O)N[C@@H](CC(N)=O)C(=O)N[C@H]2C(=O)N[C@H]3C(=O)N[C@H](C(=O)N[C@H](C(=O)O)c4cc(O)c(CNCCO[C@H]5OC(CO)[C@@H](O)C(O)C5O)c(O)c4-c4cc3ccc4O)[C@H](O)c3ccc(c(Cl)c3)Oc3cc2cc(c3OC2O[C@H](CO)C(O)C(O)[C@H]2O[C@@H]2CC(C)[C@@H](O)C(C)(NCc3ccc(-c4ccc(Cl)cc4)cc3)C2)Oc2ccc(cc2Cl)[C@H]1O (some centres unmarked) 2

Now consider C#Cc1ccc(CNC2(C)C[C@H](O[C@@H]3C(O)C(O)[C@@H](CO)O[C@H]3Oc3c4cc5cc3Oc3ccc(cc3Cl)[C@@H](O)[C@@H](NC(=O)[C@@H](CC(C)C)NC)C(=O)N[C@@H](CC(N)=O)C(=O)N[C@H]5C(=O)N[C@@H]3C(=O)N[C@H](C(=O)N[C@H](C(=O)O)c5cc(O)c(CNC6C(O)OC(CO)[C@H](O)[C@@H]6O)c(O)c5-c5cc3ccc5O)[C@H](O)c3ccc(c(Cl)c3)O4)O[C@@H](C)[C@H]2O)cc1 (some centres unmarked) . 2

Try this compound too: CCCCCc1ccc(CNC2(C)C[C@H](O[C@@H]3C(O)C(O)[C@@H](CO)O[C@H]3Oc3c4cc5cc3Oc3ccc(cc3Cl)[C@@H](O)[C@@H](NC(=O)[C@@H](CC(C)C)NC)C(=O)N[C@@H](CC(N)=O)C(=O)N[C@H]5C(=O)N[C@@H]3C(=O)N[C@H](C(=O)N[C@H](C(=O)O)c5cc(O)c(CNC6C(O)OC(CO)[C@H](O)[C@@H]6O)c(O)c5-c5cc3ccc5O)[C@H](O)c3ccc(c(Cl)c3)O4)O[C@@H](C)[C@H]2O)cc1 (some centres unmarked) 0.25

Now consider CN[C@H](CC(C)C)C(=O)N[C@H]1C(=O)N[C@@H](CC(N)=O)C(=O)N[C@H]2C(=O)N[C@@H]3C(=O)N[C@H](C(=O)N[C@H](C(=O)O)c4cc(O)c(CNCCCNC(=O)[C@H](O)[C@@H](O)[C@H](O[C@@H]5OC(CO)[C@H](O)C(O)[C@@H]5O)[C@H](O)CO)c(O)c4-c4cc3ccc4O)[C@H](O)c3ccc(c(Cl)c3)Oc3cc2cc(c3OC2O[C@H](CO)C(O)C(O)[C@H]2O[C@H]2CC(C)(NCc3ccc(-c4ccc(Cl)cc4)cc3)[C@H](O)C(C)O2)Oc2ccc(cc2Cl)[C@H]1O (some centres unmarked) . 0.25
